system: basophils in whole blood from HDM allergic donors; test: Basophil Activation Test (BAT); format: cell-based, human; conditions: 1000 ng/ml; blood from HDM allergic individuals (n=14)
MEASUREMENT LABEL: # of individuals of 14 with positive BAT test

Qu. Look up # of individuals of 14 with positive BAT test: A025: house dust mite protein; SEQ ID NO: 17 (Der f), 18 (Der p) (protein) QSLFVDYNDYSCGSSQNETNELIQEFKIFKKNINGNENFKKINDFIEKARLFRDNAAKQMLEIDQQLLTLNVIQISQRIKLENNKIQCEKLTKFSELLSMQLLAYEVGMFEFAEEIDPNIDFDRKMKNFLDETSRLFNLAEFEKLEKKFRNATSIEKLKNYIDGELVALNDYINEFLKDIIMSEFTVQSRYYLNFSIEDQVQIDSTLMTFSALKILLNDLKDYLEHLDN
Ans. 5
